# Tested on: TAB113
# Protocol Details: qHTS profiling for inhibitors of Plasmodium falciparum proliferation (AID 504749); further: nearly all actives have a fitted effect of over 60% in size
# Experimental Conditions: P. falciparum in erythrocytes, SYBR Green DNA, 72 h; series mostly up to 28.7 µM
Inconclusive results are not listed. Active and inactive are the calls of the source. The call rests on the fitted dose curve; in most records, active means well fitted inhibition curve with a large enough effect; inconclusive means small, poorly fitted or top-dose-only effect; inactive means flat fitted curve, though single readings scatter.
Possible outcomes: yes (1) for active, no (0) for inactive

Compound: O=C(Nc1ccc(Br)cc1)c1cc(Br)cc(Br)c1O
Assayed System: TAB113
Class Assignment: no (0)
--
Compound: CNC(C)(C)Cc1ccccc1
Assayed System: TAB113
Class Assignment: no (0)
--
Compound: COc1ccc2c(c1)C13CCCC[C@@H]1C(C2)N(C)CC3 (stereo partly specified)
Assayed System: TAB113
Class Assignment: no (0)
--
Compound: O=c1oc2ccccc2c(O)c1Cc1c(O)c2ccccc2oc1=O
Assayed System: TAB113
Class Assignment: no (0)
--
Compound: CN1C(=O)NC(=O)C(C)(C2=CCCCC2)C1=O (stereo unspecified)
Assayed System: TAB113
Class Assignment: no (0)
--
Compound: C[C@]12CCC(=O)C=C1CC[C@@H]1[C@@H]2CC[C@]2(C)C(=O)CC[C@@H]12
Assayed System: TAB113
Class Assignment: no (0)
--
Compound: CN1C(=O)COc2c(C(=O)NC3CN4CCC3CC4)cc(Cl)cc21 (stereo unspecified)
Assayed System: TAB113
Class Assignment: no (0)
--
Compound: COP(=S)(OC)Oc1ccc(S(=O)(=O)N(C)C)cc1
Assayed System: TAB113
Class Assignment: no (0)
--
Compound: COP(=S)(OC)SCN1C(=O)c2ccccc2C1=O
Assayed System: TAB113
Class Assignment: no (0)
--
Compound: O=C1OC(c2ccc(O)c(S(=O)(=O)O)c2)(c2ccc(O)c(S(=O)(=O)O)c2)c2c(Br)c(Br)c(Br)c(Br)c21
Assayed System: TAB113
Class Assignment: no (0)
--
Compound: C[C@](O)(CS(=O)(=O)c1ccc(F)cc1)C(=O)Nc1ccc(C#N)c(C(F)(F)F)c1
Assayed System: TAB113
Class Assignment: no (0)
--
Compound: CN1CCC(O)(c2ccc(F)cc2)C(C(=O)c2ccc(F)cc2)C1 (stereo unspecified)
Assayed System: TAB113
Class Assignment: no (0)
--
Compound: COC(=O)C(c1ccccc1)C1CCCCN1 (stereo unspecified)
Assayed System: TAB113
Class Assignment: no (0)
--
Compound: NCCc1ccc(O)cc1
Assayed System: TAB113
Class Assignment: no (0)
--
Compound: Cc1ncsc1CCCl
Assayed System: TAB113
Class Assignment: no (0)
--
Compound: O=C(N/N=C/c1ccc([N+](=O)[O-])o1)c1cc([N+](=O)[O-])cc([N+](=O)[O-])c1O
Assayed System: TAB113
Class Assignment: yes (1)
--
Compound: C[C@]12CC[C@@H]3c4ccc(OC(=O)N(CCCl)CCCl)cc4CC[C@H]3[C@@H]1CC[C@@H]2O
Assayed System: TAB113
Class Assignment: no (0)
--
Compound: CC(C)c1cccc(C(C)C)c1O
Assayed System: TAB113
Class Assignment: no (0)
--
Compound: NNc1ccccc1
Assayed System: TAB113
Class Assignment: no (0)
--
Compound: CCC(C)(C)c1ccc(O)cc1
Assayed System: TAB113
Class Assignment: no (0)
--
Compound: CN1C(=O)CCS(=O)(=O)C1c1ccc(Cl)cc1 (stereo unspecified)
Assayed System: TAB113
Class Assignment: no (0)
--
Compound: O=C1c2ccccc2C(=O)C1C(=O)C(c1ccccc1)c1ccccc1
Assayed System: TAB113
Class Assignment: no (0)
--
Compound: CC(C)NC(C)C
Assayed System: TAB113
Class Assignment: no (0)
--
Compound: CCCC(C)(COC(N)=O)COC(N)=O
Assayed System: TAB113
Class Assignment: no (0)
--
Compound: NC(=O)CS(=O)C(c1ccccc1)c1ccccc1 (stereo unspecified)
Assayed System: TAB113
Class Assignment: no (0)
--
Compound: CCCCCCCCCC(=O)O[C@H]1CC[C@H]2[C@@H]3CCC4=CC(=O)CC[C@@H]4[C@H]3CC[C@]12C
Assayed System: TAB113
Class Assignment: no (0)
--
Compound: CCOC(=O)CC(SP(=S)(OC)OC)C(=O)OCC (stereo unspecified)
Assayed System: TAB113
Class Assignment: no (0)
--
Compound: CN1C(=O)C(O)N=C(c2ccccc2)c2cc(Cl)ccc21 (stereo unspecified)
Assayed System: TAB113
Class Assignment: no (0)
--
Compound: Nc1ccc([As](=O)(O)O)cc1
Assayed System: TAB113
Class Assignment: no (0)
--
Compound: CC(C)=CC1C(C(=O)OCN2C(=O)C3=C(CCCC3)C2=O)C1(C)C (stereo unspecified)
Assayed System: TAB113
Class Assignment: no (0)
--
Compound: Clc1ccc2c(c1)C(c1ccccc1)=NCc1nncn1-2
Assayed System: TAB113
Class Assignment: no (0)

The measurements presented in this section are drawn from PubChem BioAssay (NCATS).
